- Tested on: Fibroblast
- TEST NAME: Incucyte cell viability with human fibroblast; note: filed as whole numbers so only -1 and 0 and 1 occur
- Assay type: toxicity, cell-based
- CONDITION PARAMETERS: 6 h, 10 µM, compound concentration 10 uM, replicate number 1, timepoint 6 hours
PROPERTY NAME: Growth Rate
Quick one: just the number, no unit, thanks!

Prompt: For O=C(NCCCC1CCCCC1)c1ccc(CNC(=O)c2cnn(-c3ccccc3)c2C(F)(F)F)cc1 [SR-321] , write its Growth Rate.
Response: 1

====

- System: HEK-293T
- TEST NAME: Multiplex assay against HEK293T
- Type: toxicity, cell-based
- CONDITION PARAMETERS: human, 12 h, 1 µM, compound concentration 1 uM, replicate 2
PROPERTY NAME: Population Mitochondria Different-Phenotype (%)
Reply with just the number (in %).

In the examples that follow, each entry is paired with its recorded Population Mitochondria Different-Phenotype (%).
>>> result("C=CC(=O)Nc1ccc2ncnc(Nc3ccc(OCc4cccc(F)c4)c(Cl)c3)c2c1.Cc1ccc(S(=O)(=O)O)cc1")
26
>>> result("CC(C)(O)CNc1ncc(-c2ccnc(Nc3ccnc(Cl)c3)n2)c(CC2CC2)n1")
13
>>> result("C[C@@]1(C(=O)Nc2ccc(F)nc2)CCCN1c1nc(Nc2cc(C3CC3)n[nH]2)c2cccn2n1 [BMS-754807]")
57

Prompt: Find the measured Population Mitochondria Different-Phenotype (%) of O=C1NCN(c2ccccc2)C12CCN(CCCOc1ccc(F)cc1)CC2 [SPIRAMIDE] and report it.
Response: 11
